Target: T1, C-terminal human Regnase-1 (amino acids 301 to 599) with N-terminal FLAG tag and C-terminal BirA recognition … (human, UniProt Q5D1E8 301-599)
T1 sequence: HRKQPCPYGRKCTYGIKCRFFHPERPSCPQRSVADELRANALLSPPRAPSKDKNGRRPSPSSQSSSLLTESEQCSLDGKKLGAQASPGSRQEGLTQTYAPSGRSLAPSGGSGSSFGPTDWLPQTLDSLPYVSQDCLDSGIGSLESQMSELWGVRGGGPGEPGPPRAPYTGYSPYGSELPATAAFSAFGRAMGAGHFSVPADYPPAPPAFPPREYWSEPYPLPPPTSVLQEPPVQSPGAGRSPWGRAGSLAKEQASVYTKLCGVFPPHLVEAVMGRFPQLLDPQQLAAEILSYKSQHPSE
Assay: cell-based or functional assay
Positions of bridges follow the written chain, without caps; N, C: chain ends. Non-standard residues stand in square brackets, D forms with d. *: point of attachment. Pyrrolidide = C1CCN(*)C1; dNMeA = CN[C@H](C)C(=O)O
property: 50% inhibition concentration, Regnase-1 phosphorylation by TBK1 (AlphaScreen)

stdin: Which 50% inhibition concentration, Regnase-1 phosphorylation by TBK1 (AlphaScreen) value is on record for [dNMeA]KHASAWYRIWD-Pyrrolidide (lactam N-12) [PP3] ?
stdout: 7.1 µM

stdin: I'd like to know its 50% inhibition concentration, Regnase-1 phosphorylation by TBK1 (AlphaScreen). The binder in question is XRFRQWKWVYPD (HELM PEPTIDE1{[meA].R.F.R.Q.W.K.W.V.Y.P.D.[C1CCN([*:1])C1]}$PEPTIDE1,PEPTIDE1,1:R1-12:R3$$$V2.0; SMILES CC(C)[C@@H]1NC(=O)[C@H](Cc2c[nH]c3ccccc23)NC(=O)[C@H](CCCCN)NC(=O)[C@H](Cc2c[nH]c3ccccc23)NC(=O)[C@H](CCC(N)=O)NC(=O)[C@H](CCCNC(=N)N)NC(=O)[C@H](Cc2ccccc2)NC(=O)[C@H](CCCNC(=N)N)NC(=O)[C@H](C)N(C)C(=O)C[C@@H](C(=O)N2CCCC2)NC(=O)[C@@H]2CCCN2C(=O)[C@H](Cc2ccc(O)cc2)NC1=O) [PP13]
stdout: 18 µM

stdin: Data request, read-out 50% inhibition concentration, Regnase-1 phosphorylation by TBK1 (AlphaScreen), for XKFAQFRWIYPD (HELM PEPTIDE1{[meA].K.F.A.Q.F.R.W.I.Y.P.D.[C1CCN([*:1])C1]}$PEPTIDE1,PEPTIDE1,1:R1-12:R3$$$V2.0; SMILES CC[C@H](C)[C@@H]1NC(=O)[C@H](Cc2c[nH]c3ccccc23)NC(=O)[C@H](CCCNC(=N)N)NC(=O)[C@H](Cc2ccccc2)NC(=O)[C@H](CCC(N)=O)NC(=O)[C@H](C)NC(=O)[C@H](Cc2ccccc2)NC(=O)[C@H](CCCCN)NC(=O)[C@H](C)N(C)C(=O)C[C@@H](C(=O)N2CCCC2)NC(=O)[C@@H]2CCCN2C(=O)[C@H](Cc2ccc(O)cc2)NC1=O) [PP11]
stdout: > 62.1 µM

stdin: Using the record for XNSWYKIWGLD (HELM PEPTIDE1{[meA].N.S.W.Y.K.I.W.G.L.D.[C1CCN([*:1])C1]}$PEPTIDE1,PEPTIDE1,1:R1-11:R3$$$V2.0; SMILES CC[C@H](C)[C@@H]1NC(=O)[C@H](CCCCN)NC(=O)[C@H](Cc2ccc(O)cc2)NC(=O)[C@H](Cc2c[nH]c3ccccc23)NC(=O)[C@H](CO)NC(=O)[C@H](CC(N)=O)NC(=O)[C@H](C)N(C)C(=O)C[C@@H](C(=O)N2CCCC2)NC(=O)[C@H](CC(C)C)NC(=O)CNC(=O)[C@H](Cc2c[nH]c3ccccc23)NC1=O) [PP21] , report its 50% inhibition concentration, Regnase-1 phosphorylation by TBK1 (AlphaScreen).
stdout: 17 µM

stdin: For the binder shown here, XWIWDFWNED (HELM PEPTIDE1{[meA].W.I.W.D.F.W.N.E.D.[C1CCN([*:1])C1]}$PEPTIDE1,PEPTIDE1,1:R1-10:R3$$$V2.0; SMILES CC[C@H](C)[C@@H]1NC(=O)[C@H](Cc2c[nH]c3ccccc23)NC(=O)[C@H](C)N(C)C(=O)C[C@@H](C(=O)N2CCCC2)NC(=O)[C@H](CCC(=O)O)NC(=O)[C@H](CC(N)=O)NC(=O)[C@H](Cc2c[nH]c3ccccc23)NC(=O)[C@H](Cc2ccccc2)NC(=O)[C@H](CC(=O)O)NC(=O)[C@H](Cc2c[nH]c3ccccc23)NC1=O) [PP24] , give the reported 50% inhibition concentration, Regnase-1 phosphorylation by TBK1 (AlphaScreen).
stdout: 34.8 µM
